Known shrunken log2 fold change of a selection of sequences
tested on: Escherichia coli TOP10; assay: shrunken log2 fold change of peptide-encoding DNA abundance (4.5 h post-induction vs induction); higher = less antimicrobial activity (less host growth inhibition); conditions: time post-induction: 4.5 h; library: site-saturation at positions 5, 18, 19, 20;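 note: peptides expressed intracellularly from a pBAD plasmid library in pooled LB shake-flask culture, induced with 0.3% L-arabinose, DNA abundance read by NGS, three biological replicates, DESeq2 with apeglm shrinkage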

Previously resolved entries follow.
RRIRHRPPRLPRPRPRPPPIPRP; 0.361
RRIRHRPPRLPRPRPRPWFKPRP; 0.0141
RRIRIRPPRLPRPRPRPMILPRP; -0.131
RRIRPRPPRLPRPRPRPVLDPRP; -0.304
RRIRVRPPRLPRPRPRPQYVPRP; -0.262

**Q:** Fill in: shrunken log2 fold change of RRIRARPPRLPRPRPRPPQVPRP is ___
**A:** 0.162

**Q:** For the sequence shown here, RRIRDRPPRLPRPRPRPRIHPRP , give the reported shrunken log2 fold change.
**A:** -0.563

**Q:** Given the entry RRIRRRPPRLPRPRPRPAWHPRP , report its measured shrunken log2 fold change.
**A:** 0.527

**Q:** Which shrunken log2 fold change is reported for this sequence? RRIRRRPPRLPRPRPRPLAEPRP
**A:** 0.654
